PROTOCOL DESCRIPTION: caspase-8 TRAIL sensitization, hit retest, confirmation, cell-based, NB7+caspase-8, with/without TRAIL, luminescence panel (AID 651596)
CONDITION SUMMARY: NB7 neuroblastoma + caspase-8, without TRAIL, luminescence viability, without TRAIL, mean of runs, at 10 µM
Output 1 (yes) for records whose activity is lower than 70%, 0 (no) for records at or above 70%.

MOLECULE	CATEGORY
COc1cc2nc(N3CCN(c4cc(C)ccc4C)CC3)nc(N)c2cc1OC	0 (no)
CC(C)CCn1cnc2c([nH]c3cccc(Cl)c32)c1=O	1 (yes)
Cc1ccc(C(=O)Nc2ncc(C)s2)s1	0 (no)
Oc1ccc(-c2cn3cc(C(F)(F)F)ccc3n2)cc1	0 (no)
CCOc1cc(CNCCc2ccc(S(N)(=O)=O)cc2)ccc1OCc1ccc(Cl)cc1	0 (no)
Cc1nc2c(-c3ccc(F)cc3)cnn2c(N)c1-c1ccccc1	0 (no)
CSCCC(NC(=O)c1ccc(Cl)c([N+](=O)[O-])c1)C(=O)N1CCN(C/C=C/c2ccccc2)CC1 (centres undefined)	1 (yes)
Cc1cccc(N(Cc2cc(=O)[nH]c3ccccc23)C(=O)CCl)c1	0 (no)
CN(C)c1ccc(Nc2nc(N)c3ccccc3n2)cc1	0 (no)
C=CCN1C=CC(=C/C=C(/C#N)C(=O)OCC)C=C1	1 (yes)
CC(C)c1ccc(NC(=O)Nc2nc(C(N)CCc3ccccc3)cs2)cc1 (centres undefined)	0 (no)
CCCCn1c(=O)[nH]c(=O)c2c1nc(Cn1ncc(Cl)c(Cl)c1=O)n2CCC	0 (no)
Cn1c(N)c(C(=O)COC(=O)c2ccccc2C(=O)c2ccc(Cl)c([N+](=O)[O-])c2)c(=O)n(C)c1=O	0 (no)
CC[C@H]1CN2CCc3cc(OC)c(OC)cc3C2C[C@@H]1C[C@H]1NCCc2cc(OC)c(OC)cc21 (some centres undefined)	0 (no)
O=[N+]([O-])c1c(Nc2cccc(O)c2)cc(Cl)c2nonc12	0 (no)
CCCCCCCCCCCCCCC[C@@H](O)[C@@H](N)CO	0 (no)
COc1ccc(C=C2OC(=O)C(C(C)=O)=C2O)cc1	0 (no)
Cc1ccccc1-c1nnc(SCC(=O)Nc2cccnc2Cl)o1	1 (yes)
c1ccc(CSc2ccc(-c3ccco3)nn2)cc1	1 (yes)
CN(CCO)c1cc(Sc2nc3ccccc3s2)c2nonc2c1[N+](=O)[O-]	0 (no)
COc1ccc(OC)c(N(CCN2C(=O)c3ccccc3C2=O)C(=O)CCl)c1	0 (no)
CCOc1ccc2nc(NC(=O)c3ccc(C)o3)sc2c1	1 (yes)
O=c1[nH]c2ccccc2nc1/C=C/c1ccc(Cl)cc1	0 (no)
Cc1ccccc1C(=O)O/N=C(\N)c1cccc([N+](=O)[O-])c1	0 (no)
C=CCNc1nc(NCc2ccc(NC(C)=O)cc2)c2sc(-c3ccccc3)cc2n1	1 (yes)
O=C(CCl)Nc1ccccc1Sc1ccc(Cl)cc1	0 (no)
CC(C)N1CCc2c(sc(NC(=O)c3ccc([N+](=O)[O-])o3)c2C(N)=O)C1	0 (no)
Cc1ccc(-n2nnc(-c3nccn3C)n2)cc1	0 (no)
Cc1cccnc1NC(=O)c1sc2ccccc2c1Cl	1 (yes)
Nc1nc(N)c2c(ccc3nccc32)[nH]1	0 (no)
C/C(=N\Nc1nc(C)cc(-c2ccccc2)n1)c1cccc(N)c1	1 (yes)
Cc1ccc(-c2nc(N/N=C/c3cccc([N+](=O)[O-])c3)c3ccccc3n2)cc1	1 (yes)
C=CCn1c(C)cc(C(=O)COC(=O)c2n[nH]c(=O)c3ccccc23)c1C	1 (yes)
CN(C)c1ccnc2c[cH-]cc12.[Fe].c1ccc(-[c-]2[c-](-c3ccccc3)[c-](-c3ccccc3)[c-](-c3ccccc3)[c-]2-c2ccccc2)cc1 (centres undefined)	1 (yes)
COCCn1c(C)cc(C(=O)COC(=O)c2cccc(O)c2)c1C	0 (no)
O=C(NCCN1CCOCC1)NC1(C(F)(F)F)Oc2ccc(Cl)cc2O1 (centres undefined)	1 (yes)
CCOc1ccc(C(=O)Nc2ccc3[nH]ncc3c2)cc1	0 (no)
CC(=O)CSc1ccc(-c2nc3cc(C)c(C)cc3[nH]2)cn1	0 (no)
C=CCOc1ccccc1CN(C(=O)CCl)c1ccc2c(c1)OCO2	0 (no)
N/C(CCS(=O)(=O)c1ccc(Cl)cc1)=N\OC(=O)c1ccc(Cl)cc1	0 (no)
Cc1ccc(/C=N/Nc2nnc(Cl)c3ccccc23)cc1	0 (no)
Cc1ccc(Nc2nc(N)nc(CCl)n2)cc1	0 (no)

Attribution: PubChem BioAssay
